target: Cysteineless Mouse MDR3 P-glycoprotein (Mus musculus, UniProt P21447, C1070A/C1121A/C1223A/C133A/C427A/C638A/C669A/C713A/C952A); construct: made in house; host or cells: Pichia pastoris; assay: ATPase activity assay (basal and verapamil-stimulated), purified P-gp in mixed micelles; assay type: biochemical; conditions: no added transport substrate; ± standard deviation
Sequence (P21447 whole entry C133A/C427A/C638A/C669A/C713A/C952A/C1070A/C1121A/C1223A): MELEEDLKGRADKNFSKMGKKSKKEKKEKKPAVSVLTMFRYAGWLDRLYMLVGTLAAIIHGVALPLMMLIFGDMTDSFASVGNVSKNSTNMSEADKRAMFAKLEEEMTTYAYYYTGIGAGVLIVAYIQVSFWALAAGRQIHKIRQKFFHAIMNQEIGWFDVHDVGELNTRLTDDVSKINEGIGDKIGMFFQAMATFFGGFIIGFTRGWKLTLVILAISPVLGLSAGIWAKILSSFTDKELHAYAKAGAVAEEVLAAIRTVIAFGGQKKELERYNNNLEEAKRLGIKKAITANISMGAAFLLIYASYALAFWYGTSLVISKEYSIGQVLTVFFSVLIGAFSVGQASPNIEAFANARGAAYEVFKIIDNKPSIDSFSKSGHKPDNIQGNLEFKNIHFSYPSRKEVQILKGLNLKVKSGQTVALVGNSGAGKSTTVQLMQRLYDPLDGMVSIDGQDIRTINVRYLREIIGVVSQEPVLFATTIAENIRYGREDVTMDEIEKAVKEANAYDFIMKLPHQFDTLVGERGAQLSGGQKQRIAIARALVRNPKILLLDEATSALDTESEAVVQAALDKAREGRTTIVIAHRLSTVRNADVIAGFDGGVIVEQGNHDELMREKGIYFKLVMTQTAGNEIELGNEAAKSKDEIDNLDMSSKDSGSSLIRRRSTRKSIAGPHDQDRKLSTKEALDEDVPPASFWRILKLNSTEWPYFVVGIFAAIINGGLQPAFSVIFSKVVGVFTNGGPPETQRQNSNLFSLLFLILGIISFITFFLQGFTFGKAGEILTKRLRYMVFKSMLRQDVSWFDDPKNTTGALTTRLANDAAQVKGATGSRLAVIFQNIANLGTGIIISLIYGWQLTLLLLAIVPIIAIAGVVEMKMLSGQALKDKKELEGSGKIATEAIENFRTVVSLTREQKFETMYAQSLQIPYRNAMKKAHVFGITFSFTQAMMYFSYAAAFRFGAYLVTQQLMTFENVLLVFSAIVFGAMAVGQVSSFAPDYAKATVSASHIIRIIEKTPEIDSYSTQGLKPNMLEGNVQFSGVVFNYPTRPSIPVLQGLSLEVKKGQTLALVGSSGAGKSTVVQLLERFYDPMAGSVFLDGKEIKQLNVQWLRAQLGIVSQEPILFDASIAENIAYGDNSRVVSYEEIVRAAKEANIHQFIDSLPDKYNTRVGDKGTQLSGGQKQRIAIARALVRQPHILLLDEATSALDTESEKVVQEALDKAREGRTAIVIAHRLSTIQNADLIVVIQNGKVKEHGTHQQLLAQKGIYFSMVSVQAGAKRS
The reader will find reported Basal ATPase values listed item by item below.

Study these solved cases before continuing.
| Molecule | Basal ATPase |
| --- | --- |
| Cc1cc(C)c(-c2cc(NC(=O)CSc3nnc4c(n3)[nH]c3ccccc34)n(-c3ccccc3)n2)cc1C | 101 ± 12 % of DMSO |
| Cc1cc(C)c(-c2cc(NC(=O)CSc3nnc(C4CC4)[nH]3)n(-c3ccccc3)n2)cc1C [compound 29, reference compound] | 95 ± 11 % of DMSO |
| Cc1cc(C)c(-c2cc(NC(=O)CSCC(=O)Nc3ccc4ccccc4c3)n(-c3ccccc3)n2)cc1C | 70 ± 0 % of DMSO |

Q. What value of Basal ATPase has been recorded for this entry: `Cc1cc(C)c(-c2cc(NC(=O)CSCC(=O)N3c4ccccc4CCc4ccccc43)n(-c3ccccc3)n2)cc1C`
A. 88 ± 4 % of DMSO

Q. What value of Basal ATPase has been recorded for this entry: `Cc1cc(C)c(-c2cc(NC(=O)CSCC(=O)NC34CC5CC(CC(C5)C3)C4)n(-c3ccccc3)n2)cc1C`
A. 78 ± 4 % of DMSO

Q. What value of Basal ATPase has been recorded for this entry: `Cc1cc(C)c(-c2cc(NC(=O)CSCC(=O)NC(c3ccccc3)c3ccccc3)n(-c3ccccc3)n2)cc1C`
A. 148 ± 4 % of DMSO

Q. What value of Basal ATPase has been recorded for this entry: `COc1cc(NC(=O)CSCC(=O)Nc2cc(-c3cc(C)c(C)cc3C)nn2-c2ccccc2)cc(OC)c1OC`
A. 1143 ± 46 % of DMSO

Q. What value of Basal ATPase has been recorded for this entry: `Cc1cc(C)c(-c2cc(NC(=O)CSc3cccc(NC(=O)c4cncc(Br)c4)c3)n(-c3ccccc3)n2)cc1C`
A. 150 ± 6 % of DMSO

Q. What value of Basal ATPase has been recorded for this entry: `Cc1cc(C)c(-c2cc(NC(=O)CSCC(=O)Nc3ccc4ncsc4c3)n(-c3ccccc3)n2)cc1C`
A. 355 ± 7 % of DMSO

Q. What value of Basal ATPase has been recorded for this entry: `Cc1cc(C)c(-c2cc(NC(=O)CSCC(=O)NCc3ccc(F)cc3)n(-c3ccccc3)n2)cc1C`
A. 143 ± 32 % of DMSO

----------
The reader will find reported Maximum ATP binding values listed item by item below.
molecular target: cysteineless mouse P-glycoprotein (Mus musculus, UniProt P21447, C1070A/C1121A/C1223A/C133A/C427A/C638A/C669A/C713A/C952A); construct: made in house; host or cells: Pichia pastoris; test: SL-ATP (spin-labeled ATP analog) binding titration by ESR; details: in the presence of the compound; ± standard deviation
Sequence (P21447 whole entry C133A/C427A/C638A/C669A/C713A/C952A/C1070A/C1121A/C1223A): as above

Q. What value of Maximum ATP binding has been recorded for this entry: Cc1cc(C)c(-c2cc(NC(=O)CSc3nnc4c(n3)[nH]c3ccccc34)n(-c3ccccc3)n2)cc1C [29-541]
A. 1.8 ± 0.1 mol SL-ANP bound/mol P-gp

Q. What value of Maximum ATP binding has been recorded for this entry: Cc1cc(C)c(-c2cc(NC(=O)CSCC(=O)N3c4ccccc4CCc4ccccc43)n(-c3ccccc3)n2)cc1C [29-227]
A. 1.8 ± 0.1 mol SL-ANP bound/mol P-gp

Q. What value of Maximum ATP binding has been recorded for this entry: Cc1cc(C)c(-c2cc(NC(=O)CSCC(=O)NCc3ccc(F)cc3)n(-c3ccccc3)n2)cc1C [29-286]
A. 1.9 ± 0.1 mol SL-ANP bound/mol P-gp

Q. What value of Maximum ATP binding has been recorded for this entry: Cc1cc(C)c(-c2cc(NC(=O)CSc3cccc(NC(=O)c4cncc(Br)c4)c3)n(-c3ccccc3)n2)cc1C [29-551]
A. 1.7 ± 0.1 mol SL-ANP bound/mol P-gp

Q. What value of Maximum ATP binding has been recorded for this entry: Cc1cc(C)c(-c2cc(NC(=O)CSCC(=O)NC(c3ccccc3)c3ccccc3)n(-c3ccccc3)n2)cc1C [29-280]
A. 1.6 ± 0.1 mol SL-ANP bound/mol P-gp

Q. What value of Maximum ATP binding has been recorded for this entry: Cc1cc(C)c(-c2cc(NC(=O)CSCC(=O)Nc3ccc4ccccc4c3)n(-c3ccccc3)n2)cc1C [29-231]
A. 1.8 ± 0.1 mol SL-ANP bound/mol P-gp

Q. What value of Maximum ATP binding has been recorded for this entry: Cc1cc(C)c(-c2cc(NC(=O)CSCC(=O)Nc3ccc4ncsc4c3)n(-c3ccccc3)n2)cc1C [29-255]
A. 1.9 ± 0.1 mol SL-ANP bound/mol P-gp
